Measured residual activity of individual entries
TARGET_UNDER_TEST: MAP kinase-activated protein kinase 3 (Homo sapiens) (UniProt Q16644)
Sequence (Q16644 whole entry, looked up): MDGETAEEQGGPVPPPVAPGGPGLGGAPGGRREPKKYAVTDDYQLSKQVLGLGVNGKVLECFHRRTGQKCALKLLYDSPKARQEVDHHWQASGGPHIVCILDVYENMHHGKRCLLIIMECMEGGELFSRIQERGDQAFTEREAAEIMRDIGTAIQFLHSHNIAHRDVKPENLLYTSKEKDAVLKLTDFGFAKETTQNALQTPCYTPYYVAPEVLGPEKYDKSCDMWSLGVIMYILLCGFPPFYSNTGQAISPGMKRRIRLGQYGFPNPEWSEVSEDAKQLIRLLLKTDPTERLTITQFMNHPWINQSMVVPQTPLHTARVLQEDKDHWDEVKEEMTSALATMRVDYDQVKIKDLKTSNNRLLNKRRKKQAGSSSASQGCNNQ
COND: at 10 µM

| COMPOUND_STRUCTURE_STRING | residual activity / % |
| --- | --- |
| CO[C@@H]1[C@H](N(C)C(=O)c2ccccc2)C[C@H]2O[C@]1(C)n1c3ccccc3c3c4c(c5c6ccccc6n2c5c31)C(=O)NC4 | 37 |
| NC(=O)c1ccc2[nH]c(-c3ccc(Oc4ccc(Cl)cc4)cc3)nc2c1 | 127 |
| O=C(O)c1ccc2c3c1cccc3c(=O)n1c3ccccc3nc21 | 106 |
| COc1cc2ncnc(Nc3ccc(NC(=O)c4ccccc4)cc3)c2cc1OC | 93 |
| Cc1ccc(NC2=CC(=O)c3sc(C)nc3C2=O)cc1 | 61 |
| Oc1ccc(-c2nc(-c3ccc(F)cc3)c(-c3ccncc3)[nH]2)cc1 | 102 |
| CO[C@H]1C[C@@H]2CC[C@@H](C)[C@@](O)(O2)C(=O)C(=O)N2CCCC[C@H]2C(=O)O[C@H]([C@H](C)C[C@@H]2CC[C@@H](O)[C@H](OC)C2)CC(=O)[C@H](C)/C=C(\C)[C@@H](O)[C@@H](OC)C(=O)[C@H](C)C[C@H](C)/C=C/C=C/C=C/1C | 133 |
| N#C/C(=C(\N)Sc1ccc(N)cc1)c1ccccc1C(F)(F)F | 88 |
| O=C(Nc1cccc(Nc2nccc(Nc3cccc(C(F)(F)F)c3)n2)c1)C1CC1 | 107 |

These entries and their values trace back to ChEMBL document CHEMBL2218924.
